Measured values drawn from paper PMC7339578 for this set.

Overview of recorded Extracted samples at 8 °C for 18 h, RE for various compounds
- METHOD DESCRIPTION: Stability tests of analytes in rat plasma QC samples
- Type: in vitro ADME
- RUN CONDITIONS: rat plasma, nominal conc. 20 nM
- Experimental: […] The dilution integrity was investigated by analyzing six replicate samples with each analyte, and each analyte were diluted 10-fold with blank rat matrix. Furthermore, the diluted samples were analyzed using freshly prepared calibration curve to calculate RE and RSD, which should be no more than ± 15% as criterion.
Give the value in % but do not write % after it.

COMPOUND	Extracted samples at 8 °C for 18 h, RE / %
CC(C)=CCC[C@](C)(O)[C@H]1CC[C@]2(C)[C@@H]1[C@H](O)C[C@@H]1[C@@]3(C)CC[C@H](O)C(C)(C)[C@@H]3[C@@H](O[C@@H]3O[C@H](CO)[C@@H](O)[C@H](O)[C@H]3O[C@@H]3O[C@@H](C)[C@H](O)[C@@H](O)[C@H]3O)C[C@]12C [Compound C5, Ginsenoside Rg2]	8.32
CC(C)=CCC[C@](C)(O[C@@H]1O[C@H](CO[C@@H]2O[C@@H](CO)[C@H](O)[C@H]2O)[C@@H](O)[C@H](O)[C@H]1O)[C@H]1CC[C@]2(C)[C@@H]1[C@H](O)C[C@@H]1[C@@]3(C)CC[C@H](O[C@@H]4O[C@H](CO)[C@@H](O)[C@H](O)[C@H]4O[C@@H]4O[C@H](CO)[C@@H](O)[C@H](O)[C@H]4O)C(C)(C)[C@@H]3CC[C@]12C [Compound D3, Ginsenoside Rc]	9.82

Turning now to a further record.
Request: State the recorded Extracted samples at 8 °C for 18 h, RE for this entry: CC(C)(O)[C@@H]1CC[C@](C)([C@H]2[C@@H](O)C[C@@]3(C)[C@@H]4C[C@H](O)[C@H]5C(C)(C)[C@@H](O[C@@H]6OC[C@@H](O)[C@H](O)[C@H]6O[C@@H]6O[C@H](CO)[C@@H](O)[C@H](O)[C@H]6O)CC[C@@]56C[C@@]46CC[C@]23C)O1 [Compound B3, Astragaloside III]
Response: -14.29

---

- METHOD DESCRIPTION: Stability tests of analytes in rat plasma QC samples
- Format: in vitro ADME
- RUN CONDITIONS: rat plasma, nominal conc. 400 nM
RECORDED METRIC: Short-term stability at room temperature for 6 h, RE (%)
Reply numerically in %, unit not repeated.

COMPOUND	RECORDED MEASUREMENT
CC(C)=CCC[C@](C)(O[C@@H]1O[C@H](CO)[C@@H](O)[C@H](O)[C@H]1O)[C@H]1CC[C@]2(C)[C@@H]1[C@H](O)C[C@@H]1[C@@]3(C)CC[C@H](O[C@@H]4O[C@H](CO)[C@@H](O)[C@H](O)[C@H]4O[C@@H]4O[C@H](CO)[C@@H](O)[C@H](O)[C@H]4O)C(C)(C)[C@@H]3CC[C@]12C [Compound D2, Ginsenoside Rd]	-10.80
CC(C)(O)[C@@H]1CC[C@](C)([C@H]2[C@@H](O)C[C@@]3(C)[C@@H]4C[C@H](O)[C@H]5C(C)(C)[C@@H](O[C@@H]6OC[C@@H](O)[C@H](O)[C@H]6O[C@@H]6O[C@H](CO)[C@@H](O)[C@H](O)[C@H]6O)CC[C@@]56C[C@@]46CC[C@]23C)O1 [Compound B3, Astragaloside III]	-13.71
O=C1C=CC[C@@H]2[C@H]3CCC[N+]4([O-])CCC[C@@H](CN12)[C@@H]34 (stereo partly drawn)	12.94
CC(C)=CCC[C@](C)(O[C@@H]1O[C@H](CO[C@@H]2O[C@H](CO)[C@@H](O)[C@H](O)[C@H]2O)[C@@H](O)[C@H](O)[C@H]1O)[C@H]1CC[C@]2(C)[C@@H]1[C@H](O)C[C@@H]1[C@@]3(C)CC[C@H](O[C@@H]4O[C@H](CO)[C@@H](O)[C@H](O)[C@H]4O[C@@H]4O[C@H](CO)[C@@H](O)[C@H](O)[C@H]4O)C(C)(C)[C@@H]3CC[C@]12C [Compound D5, Ginsenoside Rb1]	-6.00
CC(C)=CCC[C@](C)(O[C@@H]1O[C@H](CO[C@@H]2O[C@@H](CO)[C@H](O)[C@H]2O)[C@@H](O)[C@H](O)[C@H]1O)[C@H]1CC[C@]2(C)[C@@H]1[C@H](O)C[C@@H]1[C@@]3(C)CC[C@H](O[C@@H]4O[C@H](CO)[C@@H](O)[C@H](O)[C@H]4O[C@@H]4O[C@H](CO)[C@@H](O)[C@H](O)[C@H]4O)C(C)(C)[C@@H]3CC[C@]12C [Compound D3, Ginsenoside Rc]	-9.03
CC(C)=CCC[C@](C)(O)[C@H]1CC[C@]2(C)[C@@H]1[C@H](O)C[C@@H]1[C@@]3(C)CC[C@H](O)C(C)(C)[C@@H]3[C@@H](O[C@@H]3O[C@H](CO)[C@@H](O)[C@H](O)[C@H]3O[C@@H]3O[C@@H](C)[C@H](O)[C@@H](O)[C@H]3O)C[C@]12C [Compound C5, Ginsenoside Rg2]	-11.77
CC(C)=CCC[C@](C)(O)[C@H]1CC[C@]2(C)[C@@H]1[C@H](O)C[C@@H]1[C@@]3(C)CC[C@H](O)C(C)(C)[C@@H]3[C@@H](O[C@@H]3O[C@H](CO)[C@@H](O)[C@H](O)[C@H]3O)C[C@]12C [Compound C1, Ginsenoside Rh1]	-12.62
CC(C)=CCC[C@](C)(O[C@@H]1O[C@H](CO)[C@@H](O)[C@H](O)[C@H]1O)[C@H]1CC[C@]2(C)[C@@H]1[C@H](O)C[C@@H]1[C@@]3(C)CC[C@H](O)C(C)(C)[C@@H]3[C@@H](O[C@@H]3O[C@H](CO)[C@@H](O)[C@H](O)[C@H]3O[C@@H]3OC[C@@H](O)[C@H](O)[C@H]3O)C[C@]12C [Compound C8, Notoginsenoside R1]	-13.09

Request: Record request: Short-term stability at room temperature for 6 h, RE value, item O=C1CCC[C@@H]2[C@H]3CCCN4CCC[C@@H](CN12)[C@@H]34
Response: 11.33
